Target: IRAK4 (Homo sapiens, UniProt Q9NWZ3)
Construct: endogenous in cells; host or cells: Karpas299
Experiment: IRAK4 Degradation Assay (Karpas299, HTRF/TR-FRET)
Type: cell-based
Details: Karpas-299 cells, 24 h treatment; maximum percentage of degradation; read-out: IRAK4 in Karpas-299 (24 h) Dmax (%)
Description: IRAK4 degradation was measured using a TR-FRET-based method (Degorce, François, et al. Current chemical genomics. 2009, 3: 22). […] IRAK4 level was quantitated using the HTRF kit as described by the manufacturer manual (Cisbio). FRET signals were measured using a PHERAstar FSX reader (BMG Labtech). […] The inhibition (degradation) percentage of the compound was calculated by the following equation: […]
Readout Name: Dmax (%)
Write the number in % without appending the unit.

Field: example entries. Status: answers known.
[ask] Which Dmax reading was recorded for the compound CC(C)(O)c1cc2nn(C3CCN(C4CCN(C(=O)C5CN(c6cc(F)c([C@H]7CCC(=O)NC7=O)c(F)c6)C5)CC4)CC3)cc2cc1NC(=O)c1cccc(C(F)(F)F)n1 ?
[reply] 99

[ask] # Dmax lookup, item CC(C)(O)c1cc2nn(C3CCN([C@@H]4CCN(C(=O)C5CN(c6cc(F)c(N7CCC(=O)NC7=O)c(F)c6)C5)CC4(F)F)CC3)cc2cc1NC(=O)c1ccc2cc(C#N)cnn12
[reply] 93

[ask] Dmax for COC[C@H]1CN([C@H]2CC[C@H](n3cc4cc(NC(=O)c5ccc6cc(C#N)cnn56)c(C(C)(C)O)cc4n3)CC2)CCN1CC1CCN(c2ccc3c(c2)CN(C2CCC(=O)NC2=O)C3=O)CC1 (some centres unmarked) ?
[reply] 95

[ask] I would be grateful if you could share the reported Dmax for CC(C)(O)c1cc2nn([C@H]3CC[C@H](N4CCN(C(=O)[C@@H]5CCN(c6cc(F)c([C@H]7CCC(=O)NC7=O)c(F)c6)C5)CC4)CC3)cc2cc1NC(=O)c1ccc2c(n1)C(F)(F)CCC2 .
[reply] 94

Consider now this further compound.
[ask] Could you tell me which Dmax is on file for COC[C@H]1CN(CCc2cc(F)c([C@H]3CCC(=O)NC3=O)c(F)c2)CCN1[C@H]1CC[C@H](n2cc3cc(NC(=O)c4ccc5cc(C#N)cnn45)c(C(C)(C)O)cc3n2)CC1 ?
[reply] 96

* * *

Reported Dmax by item:
Molecular target: IRAK4 (Homo sapiens, UniProt Q9NWZ3)
Construct: endogenous in cells; host or cells: Karpas299
Sequence (Q9NWZ3 1-460): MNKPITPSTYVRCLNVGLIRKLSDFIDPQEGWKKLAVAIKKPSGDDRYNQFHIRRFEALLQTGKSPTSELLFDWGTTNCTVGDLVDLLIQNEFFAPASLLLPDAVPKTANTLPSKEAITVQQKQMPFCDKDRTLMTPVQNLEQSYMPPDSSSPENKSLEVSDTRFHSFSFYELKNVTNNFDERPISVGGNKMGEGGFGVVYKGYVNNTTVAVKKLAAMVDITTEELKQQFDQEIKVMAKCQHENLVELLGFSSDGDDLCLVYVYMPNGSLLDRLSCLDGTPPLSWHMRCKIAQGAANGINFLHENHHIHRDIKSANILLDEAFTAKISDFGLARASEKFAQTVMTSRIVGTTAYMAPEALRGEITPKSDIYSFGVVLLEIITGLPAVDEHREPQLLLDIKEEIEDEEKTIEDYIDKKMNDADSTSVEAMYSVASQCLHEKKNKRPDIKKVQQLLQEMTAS
Assay: IRAK4 Degradation Assay with Human Serum (Karpas299, HTRF/TR-FRET)
Format: cell-based
Conditions: Karpas-299 in human serum, 24 hrs treatment; read-out: IRAK4 degradtion with human serum assay Dmax (%)
Reply numerically in %, unit not repeated.

Examples with answers:
[ask] Entry CC(C)(O)c1cc2nn([C@H]3CC[C@H](N4CCN(C5CCN(c6cc(F)c(C7CCC(=O)NC7=O)c(F)c6)CC5)CC4)CC3)cc2cc1NC(=O)c1ccc2cc(C#N)cnn12 (stereo partly shown) : reported Dmax = ?
[reply] 93

[ask] Item CC(C)(O)c1cc2nn(C3CCC4(CC3)CCN(C3CN(c5cc(F)c([C@H]6CCC(=O)NC6=O)c(F)c5)C3)CC4)cc2cc1NC(=O)c1ccc2cc(C#N)cnn12 has what recorded Dmax?
[reply] 94

[ask] Which Dmax is reported for this molecule? CC(C)(O)c1cc2nn(C3CCN([C@@H]4CCN(CCc5cc(F)c([C@H]6CCC(=O)NC6=O)c(F)c5)CC4(F)F)CC3)cc2cc1NC(=O)c1ccc2cc(C#N)cnn12
[reply] 97

[ask] What does the data say about its Dmax? Entry: CC(C)(O)c1cc2nn([C@H]3CC[C@H](N4C[C@@H]5CN(CC6CN(c7cc(F)c(C8CCC(=O)NC8=O)c(F)c7)C6)C[C@H]5C4)CC3)cc2cc1NC(=O)c1ccc2cc(C#N)cnn12 (stereo partly shown)
[reply] 103

[ask] Record request: Dmax value, item C[C@@H]1CN([C@H]2C[C@H](c3cc(F)c([C@H]4CCC(=O)NC4=O)c(F)c3)C2)CCN1[C@H]1CC[C@H](n2cc3cc(NC(=O)c4ccc5cc(C#N)cnn45)c(C(C)(C)O)cc3n2)CC1
[reply] 97

[ask] Please look up its Dmax: CC(C)(O)c1cc2nn(C34CC(N5CCN(C(=O)C6CN(c7cc(F)c([C@H]8CCC(=O)NC8=O)c(F)c7)C6)CC5)(C3)C4)cc2cc1NC(=O)c1cccc(C(F)(F)F)n1
[reply] 94

[ask] Which Dmax value is on record for CC(C)(O)c1cc2nn([C@H]3CC[C@H](N4CCN(C5CCN(c6ccc7c(c6)CN(C6CCC(=O)NC6=O)C7=O)CC5)CC4)CC3)cc2cc1NC(=O)c1ccc2cc(C#N)cnn12 (stereo partly shown) ?
[reply] 95

[ask] Find the recorded Dmax belonging to COC[C@@H]1CN([C@H]2CC[C@H](n3cc4cc(NC(=O)c5ccc6cc(C#N)cnn56)c(C(C)(C)O)cc4n3)CC2)CCN1C1CCN(c2ccc(C3CCC(=O)NC3=O)nc2C)CC1 (stereo partly shown) and report it.
[reply] 100

[ask] Which Dmax is reported for this molecule? CC(C)(O)c1cc2nn([C@H]3CC[C@H](N4CCN(CCNc5cccc6c5C(=O)N(C5CCC(=O)NC5=O)C6=O)CC4)CC3)cc2cc1NC(=O)c1ccc2cc(C#N)cnn12 (stereo partly shown)
[reply] 101

---
[ask] Would you kindly share the measured Dmax for CC(C)(O)c1cc2nn(C34CCC(N5CCN(C6CCN(c7cc(F)c([C@H]8CCC(=O)NC8=O)c(F)c7)CC6)CC5)(CC3)CC4)cc2cc1NC(=O)c1ccc2cc(C#N)cnn12 ?
[reply] 93
